Where these numbers come from: patent US20240335548A1

Tested on: A549
experiment: IC50 using the MTT assay
Format: cell-based
condition details: 72 hours
metric name: IC50

Qu. Lab note: need IC50 with A549 for entry BHALys[Lys]32[α-GILGVP-Glu-DTX]32[ε-t-PEG2300]32 [Example 17] , please look it up.
Ans. 160 nM

====

experiment: Pharmacokinetic analysis, plasma half-life after IV administration
condition details: rat, plasma, iv
metric name: half-life

Qu. I am curious: what half-life value has been reported for CC(=O)O[C@@]12CO[C@@H]1C[C@H](O)[C@@]1(C)C(=O)[C@H](O)C3=C(C)[C@@H](OC(=O)[C@H](O)[C@@H](NC(=O)OC(C)(C)C)c4ccccc4)C[C@@](O)([C@@H](OC(=O)c4ccccc4)[C@H]21)C3(C)C [Docetaxel, reference compound] ?
Ans. < 1 h
